Test system: HCV 1b genotype
procedureSummary: HCV Replicon assay (HCV 1b genotype)
Type: cell-based
particulars: Hepatitis C virus; HCV 1b genotype replicon; range class; read-out: EC50-Range
Reported EC50 values for the following compounds.

Here `COC(=O)N[C@@H](C(=O)N1[C@@H]2C[C@@H]2C[C@H]1c1nc(-c2ccc(-c3ccc(-c4nc([C@@H]5C[C@H]6C[C@H]6N5C(=O)[C@H](NC(=O)OC)[C@@H]5CCCOC5)[nH]c4Cl)cc3)cc2)c[nH]1)[C@H]1CCCOC1` was tested on HCV 1b genotype, and its EC50 came to 0.001 to 0.01 nM

Here `COCC[C@H](NC(=O)OC)C(=O)N1[C@@H]2C[C@@H]2C[C@H]1c1nc(-c2ccc(-c3ccc(-c4nc([C@@H]5C[C@H]6C[C@H]6N5C(=O)[C@H](CCOC)NC(=O)OC)[nH]c4Cl)cc3)cc2)c(Cl)[nH]1` was tested on HCV 1b genotype, and its EC50 came to 0.001 to 0.01 nM

Here `COC(=O)N[C@H](C(=O)N1C[C@@H](C)C[C@H]1c1ncc(-c2ccc(-c3ccc(-c4[nH]c([C@@H]5C[C@H](C)CN5C(=O)[C@@H](NC(=O)OC)C5CCOCC5)nc4Cl)cc3)cc2)[nH]1)C1CCOCC1` was tested on HCV 1b genotype, and its EC50 came to 0.01 to 0.1 nM

* * *

Tested on: HCV 1b genotype
procedureSummary: HCV Replicon assay (HCV 1b genotype)
Format: cell-based
particulars: Hepatitis C virus; HCV 1b genotype replicon; range class; read-out: EC50-Range
pEC50: −log10 of the molar value.
Reported pEC50 values for the following compounds.

Here's what some known entries look like.
COC(=O)N[C@H](C(=O)N1[C@@H](C)CC[C@H]1c1ncc(-c2ccc(-c3ccc(-c4[nH]c([C@@H]5CC[C@H](C)N5C(=O)[C@@H](NC(=O)OC)C(C)C)nc4Cl)cc3)cc2)[nH]1)C(C)C
11.00 to 12.00
COC(=O)N[C@H](C(=O)N1[C@@H]2C[C@@H]2C[C@H]1c1nc(-c2ccc(-c3ccc(-c4nc([C@@H]5C[C@H]6C[C@H]6N5C(=O)[C@@H](NC(=O)OC)[C@H]5CCCOC5)[nH]c4Cl)cc3)cc2)c(Cl)[nH]1)[C@H]1CCCOC1
11.00 to 12.00
COC(=O)N[C@H](C(=O)N1[C@@H]2C[C@@H]2C[C@H]1c1nc(-c2ccc(-c3ccc4c(ccc5[nH]c([C@@H]6C[C@H]7C[C@H]7N6C(=O)[C@@H](NC(=O)OC)C6CCOCC6)nc54)c3)cc2)c(Cl)[nH]1)C1CCOCC1
10.00 to 11.00

Here `CC[C@H](NC(=O)OC)C(=O)N1[C@@H]2C[C@@H]2C[C@H]1c1nc(Cl)c(-c2ccc(-c3ccc(-c4[nH]c([C@@H]5C[C@H]6C[C@H]6N5C(=O)[C@H](CC)NC(=O)OC)nc4Cl)cc3)cc2)[nH]1` was tested on HCV 1b genotype, and its pEC50 came to 11.00 to 12.00

* * *

Reported pEC50 values for the following compounds.
Test system: HCV 1b genotype
procedureSummary: HCV Replicon assay (HCV 1b genotype)
Format: cell-based
particulars: Hepatitis C virus; HCV 1b genotype replicon; range class; read-out: EC50-Range
Protocol: An HCV Replicon assay was utilized in the present disclosure, and was prepared, conducted and validated as described in commonly owned PCT/US2006/022197 and in O'Boyle et al., Antimicrob. Agents Chemother., 49(4):1346-1353 (April 2005). Assay methods incorporating luciferase reporters have also been used as described (Apath.com). HCV-neo replicon cells and replicon cells containing resistance substitutions in the NS5A region were used to test the currently described family of compounds. […]
pEC50: −log10 of the molar value.

Here's what some known entries look like.
COC(=O)N[C@H](C(=O)N1[C@@H]2C[C@@H]2C[C@H]1c1nc(-c2ccc(-c3ccc(-c4nc([C@@H]5C[C@H]6C[C@H]6N5C(=O)[C@@H](NC(=O)OC)C5CCOCC5)[nH]c4F)cc3)cc2)c[nH]1)C1CCOCC1 [DSTL-6]
11.00 to 12.00
C=CCc1cc([C@@H]2CCCN2C(=O)[C@@H](NC(=O)OC)C2CCOCC2)[nH]c1-c1ccc(-c2ccc(-c3cnc([C@@H]4CCCN4C(=O)[C@@H](NC(=O)OC)C4CCOCC4)[nH]3)cc2)cc1 [OL16]
10.00 to 11.00
COC(=O)NC(C(=O)N1[C@@H]2C[C@@H]2C[C@H]1c1nc(-c2ccc(-c3ccc(-c4c[nH]c([C@@H]5C[C@H]6C[C@H]6N5C(=O)[C@@H](NC(=O)OC)[C@H]5CCCOC5)n4)cc3)cc2)c(Cl)[nH]1)[C@H]1CCCOC1 (stereo partly shown) [ZY6]
10.00 to 11.00

Entry under test: COC(=O)N[C@H](C(=O)N1CCC[C@H]1c1ncc(-c2ccc(-c3ccc(-c4[nH]c([C@@H]5CCCN5C(=O)[C@@H](NC(=O)OC)C(C)C)nc4C4CC4)cc3)cc2)[nH]1)C(C)C [OL7] . Its pEC50 was 11.00 to 12.00

Values from patent US8377980B2
